assay_comment: Relative bioavailability and brain exposure of d3-IM-250 HCl salt versus IM-250 HCl salt in male mice (Example 12)
Format: in vivo
stated_conditions: mouse, whole blood; male C57bl/6 mice, single oral dose 10 mg/kg, blood
Where a name gives a salt, the structure may show the parent alone.
readout_type: half-life
Number first, unit second: that is the form wanted.

Prompt: Tell me its half-life given Cc1nc(N(C)C(=O)Cc2ccc(-c3cc(F)ccc3F)cc2)sc1[S@@](C)(=N)=O [IM-250 HCl salt] as the entry.
Completion: 5.7 h

###

AUC(0-t) values for the compounds below.
assay_comment: Relative bioavailability and brain exposure of d3-IM-250 HCl salt versus IM-250 HCl salt in male mice (Example 12)
Format: in vivo
stated_conditions: mouse, whole blood; male C57bl/6 mice, single oral dose 10 mg/kg, blood; read-out: AUC0-24
Where a name gives a salt, the structure may show the parent alone.
Write the answer as a number in ng·h/mL, unit excluded.

Cc1nc(N(C)C(=O)Cc2ccc(-c3cc(F)ccc3F)cc2)sc1[S@@](C)(=N)=O [IM-250 HCl salt]    14400

Note: attention shifts to another entry.
Prompt: Tell me its AUC(0-t) given [2H]C([2H])([2H])c1nc(N(C)C(=O)Cc2ccc(-c3cc(F)ccc3F)cc2)sc1[S@@](C)(=N)=O [d3-IM-250 HCl salt] as the entry.
Completion: 28600

###

assay_comment: Relative bioavailability and brain exposure of d3-IM-250 HCl salt versus IM-250 HCl salt in male mice (Example 12)
Type: in vivo
stated_conditions: mouse, whole blood; male C57bl/6 mice, single oral dose 10 mg/kg, suspension in 0.5% HPMC in PBS, blood
Where a name gives a salt, the structure may show the parent alone.
Cmax values for the compounds below.
Write the answer as a number in ng/mL, unit excluded.

Cc1nc(N(C)C(=O)Cc2ccc(-c3cc(F)ccc3F)cc2)sc1[S@@](C)(=N)=O [IM-250 HCl salt]    1210

Note: attention shifts to another entry.
Prompt: Tell me its Cmax given [2H]C([2H])([2H])c1nc(N(C)C(=O)Cc2ccc(-c3cc(F)ccc3F)cc2)sc1[S@@](C)(=N)=O [d3-IM-250 HCl salt] as the entry.
Completion: 2570

###

concentration at 24 h values for the compounds below.
assay_comment: Relative bioavailability and brain exposure of d3-IM-250 HCl salt versus IM-250 HCl salt in male mice (Example 12)
Type: in vivo
stated_conditions: mouse; male C57bl/6 mice, single oral dose 10 mg/kg, brain 24 h post dose after PBS perfusion; read-out: brain level @ 24 h
Where a name gives a salt, the structure may show the parent alone.
Write the answer as a number in ng/g, unit excluded.

[2H]C([2H])([2H])c1nc(N(C)C(=O)Cc2ccc(-c3cc(F)ccc3F)cc2)sc1[S@@](C)(=N)=O [d3-IM-250 HCl salt]    568

Note: attention shifts to another entry.
Prompt: Tell me its concentration at 24 h given Cc1nc(N(C)C(=O)Cc2ccc(-c3cc(F)ccc3F)cc2)sc1[S@@](C)(=N)=O [IM-250 HCl salt] as the entry.
Completion: 175
